Biological target: D(4) dopamine receptor (Homo sapiens)
Sequence (P21917 whole entry): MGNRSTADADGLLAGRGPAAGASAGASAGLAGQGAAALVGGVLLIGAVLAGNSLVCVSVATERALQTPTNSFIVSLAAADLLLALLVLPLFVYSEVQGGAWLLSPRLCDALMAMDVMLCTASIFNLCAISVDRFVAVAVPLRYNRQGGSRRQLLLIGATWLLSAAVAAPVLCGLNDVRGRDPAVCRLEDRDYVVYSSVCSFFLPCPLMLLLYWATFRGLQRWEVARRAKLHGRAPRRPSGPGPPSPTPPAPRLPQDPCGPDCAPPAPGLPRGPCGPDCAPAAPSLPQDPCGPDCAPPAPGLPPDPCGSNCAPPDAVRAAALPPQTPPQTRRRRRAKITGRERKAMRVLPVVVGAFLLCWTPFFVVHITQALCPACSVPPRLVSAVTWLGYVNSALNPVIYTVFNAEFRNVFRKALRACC
Test Readout: Ki (nM)

>  <Compound>
O=C(NCCCN1CCN(c2ccccc2)CC1)c1ccc2c(c1)Cc1ccccc1-2

>  <Ki / nM>
679

$$$$
>  <Compound>
CN1C2CCC1CC(OC1c3ccccc3Cc3ccccc31)C2 (stereo not given)

>  <Ki / nM>
541

$$$$

I. O=C1c2ccccc2C(=O)N1CCCCCN1CCN(c2cccc(Cl)c2Cl)CC1
II. O=C(NCCCN1CCN(c2cccc(Cl)c2Cl)CC1)c1cccc2c1-c1ccccc1C2=O
III. O=C(NCCCN1CCN(c2ccccc2)CC1)c1cccc2c1-c1ccccc1C2=O
Arrange by Ki, high to low. Would you mind listing the labels in the order requested? II, III, I
(II: 3990 nM, III: 1380 nM, I: 105 nM)
